A collection of compounds and their measured clearance
assay: Clearance in Sprague-Dawley rat at 2 mg/kg, iv and 5 mg/kg, po; assay type: ADME, organism-based; conditions: in vivo
Your answer is read as mL/min/kg, so omit the unit and give the number.

Entry `CCCNc1cc(C(=O)N[C@@H](CCC(=O)O)C(=O)N2CCN(C(=O)OCC)CC2)nc(-c2ccccc2)c1` has what clearance?
85

====

assay: Antiplatelet aggregation activity against adenosine diphosphate-induced human platelet rich plasma assessed as inhibition of platelet aggregation by turbidimetric method; assay type: functional; details: Homo sapiens, Platelet, Plasma
readout-name: IC50

* CCCCOC(=O)N1CCN(C(=O)[C@H](CCC(=O)O)NC(=O)c2cc(OC(=O)N3CCC(OCC)CC3)cc(-c3ccccc3)n2)CC1 | 1 µM
* CCCCCOC(=O)N1CCN(C(=O)[C@H](CCC(=O)O)NC(=O)c2cc(CCCCO)cc(-c3ccccc3)n2)CC1 | 3.2 µM
* O=C(O)CC[C@H](NC(=O)c1cccc(-c2ccccc2)n1)C(=O)N1CCN(C(=O)OCc2ccccc2)CC1 | > 100 µM

# context switch: different compound, same IC50
IC50 lookup needed for `CCCCCOC(=O)N1CCN(C(=O)[C@H](CCC(=O)O)NC(=O)c2cc(OCCCC)cc(-c3ccccc3)n2)CC1` , thanks.
28 µM
